All figures here come from paper PMC4823711.

System tested: thrombin (Homo sapiens)
Assay details: Thrombin inhibition in the presence of exosite 1 (HirP) and exosite 2 (UFH) ligands
Format: biochemical
Design: 6 nM plasma α-thrombin; purchased Haematologic Technologies (Essex Junction, VT)
Measurement setup: [HirP] 0 nM, Dixon-Webb relationship; read-out: IC50,predicted
Assay readout: IC50

## Input Which measured IC50 value corresponds to O=c1oc2cc(OCCCCn3cc(COc4ccc(-c5c(-c6ccccc6)c6cc(Cl)cc(Cl)c6oc5=O)cc4)nn3)ccc2c(-c2ccccc2)c1-c1ccc(OS(=O)(=O)O)cc1 [3g] ?
## Output 240 nM

====

System tested: thrombin mutant K169A (Homo sapiens, UniProt P00734, K537A)
Construct: a group of thrombin mutants containing replacement of either Arg or Lys present in exosite 2 to Ala
Assay details: Inhibition of thrombin mutant K169A
Measurement setup: pH 7.4, 25 °C
Assay readout: IC50
Write the numeric value and append its unit.

## Input Which measured IC50 value corresponds to O=c1oc2cc(OCCCCn3cc(COc4ccc(-c5c(-c6ccccc6)c6cc(Cl)cc(Cl)c6oc5=O)cc4)nn3)ccc2c(-c2ccccc2)c1-c1ccc(OS(=O)(=O)O)cc1 [3g] ?
## Output 494 nM
